# Target Of Assay: PCSK9 (Homo sapiens)
# Construct: Biotinylated PCSK9 was obtained commercially; purchased
# Sequence (Q8NBP7 153-692): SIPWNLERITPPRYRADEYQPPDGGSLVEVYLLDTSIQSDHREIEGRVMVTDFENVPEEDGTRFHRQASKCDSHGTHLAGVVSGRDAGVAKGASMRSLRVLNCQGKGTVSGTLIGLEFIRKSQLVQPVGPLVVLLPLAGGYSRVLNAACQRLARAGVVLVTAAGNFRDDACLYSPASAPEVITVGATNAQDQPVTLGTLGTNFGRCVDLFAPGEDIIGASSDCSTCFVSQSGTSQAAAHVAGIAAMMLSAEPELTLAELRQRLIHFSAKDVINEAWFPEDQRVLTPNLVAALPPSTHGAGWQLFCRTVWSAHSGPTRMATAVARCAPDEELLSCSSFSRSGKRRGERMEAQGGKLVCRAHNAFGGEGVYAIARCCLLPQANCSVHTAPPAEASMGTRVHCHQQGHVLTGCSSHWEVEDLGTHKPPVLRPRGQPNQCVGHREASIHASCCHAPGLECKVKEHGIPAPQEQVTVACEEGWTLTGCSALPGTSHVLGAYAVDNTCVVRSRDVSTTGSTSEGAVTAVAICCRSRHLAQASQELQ
# Assay Notes: PCSK9 Alexa FRET Ultra TR-FRET assay (displacement of AlexaFluor647 tagged cyclic peptide)
# Type: binding
# Condition Set: 0.5 nM biotinylated PCSK9, 960 nM AF cyclic peptide; Ki calculated from IC50 and KD of AF peptide; read-out: Ki Ultra
For each record, write down the corresponding log10(Ki).
Heads up, the numbers here are log10 of Ki in nM units.

Guide cases for log10(Ki), answers given:
| Structure Smiles | Measurement |
| --- | --- |
| COc1ccc(C[C@@H]2NC(=O)[C@H]([C@@H](C)O)NC(=O)[C@@H]3[C@@H]4CCN3C(=O)[C@@H]3Cc5cn(c6ccc(F)cc56)CCCCCCN(Cc5ccc(cc5)CCNC(=O)[C@]5(C)CCCN5C2=O)C(=O)CCC(=O)N[C@H]2CN(C(=O)CCOCCOCC[N+](C)(C)C)CCCCC(=O)NC[C@@H](NC2=O)C(=O)N[C@@H](Cc2cccc(c2)CNC(=O)CO4)C(=O)N3)cc1 | -1.92 |
| COc1ccc(C[C@@H]2NC(=O)[C@H]([C@@H](C)O)NC(=O)[C@@H]3[C@@H]4CCN3C(=O)[C@@H]3Cc5cn(c6ccc(F)cc56)C/C=C/CN(Cc5ccc(cc5)CCNC(=O)[C@]5(C)CCCN5C2=O)C(=O)CCC(=O)N[C@@H](C)C(=O)N[C@H](CNC(=O)CCOCCOCC[N+](C)(C)C)C(=O)N[C@@H](Cc2cccc(c2)CNC(=O)CO4)C(=O)N3)cc1 | -2.21 |
| COc1ccc(C[C@@H]2NC(=O)[C@H]([C@@H](C)O)NC(=O)[C@@H]3[C@@H]4CCN3C(=O)[C@@H]3Cc5cn(c6ccc(F)cc56)CCCCCCN(Cc5ccc(cc5)CCNC(=O)[C@]5(C)CCCN5C2=O)C(=O)CCCCC(=O)N[C@H](CNC(=O)CCOCCOCC[N+](C)(C)C)C(=O)N[C@@H](Cc2cccc(c2)CNC(=O)CO4)C(=O)N3)cc1 | -1.77 |
| COc1ccc(C[C@@H]2NC(=O)[C@H]([C@@H](C)O)NC(=O)[C@@H]3[C@@H]4CCN3C(=O)[C@@H]3Cc5cn(c6ccc(F)cc56)Cc5cn(nn5)C[C@@H](NC(=O)CCC(=O)N[C@@H](C)C(=O)N[C@H](CNC(=O)CCOCCOCC[N+](C)(C)C)C(=O)N[C@@H](Cc5cccc(c5)CNC(=O)CO4)C(=O)N3)c3ccc(cc3)CCNC(=O)[C@]3(C)CCCN3C2=O)cc1 | -1.60 |
| COc1ccc(C[C@@H]2NC(=O)[C@H]([C@@H](C)O)NC(=O)[C@@H]3[C@@H]4CCN3C(=O)[C@@H]3Cc5cn(c6ccc(F)cc56)Cc5cn(nn5)CCN(Cc5ccc(cc5)CCNC(=O)[C@]5(C)CCCN5C2=O)C(=O)CCCC(=O)N[C@@H](CNC(=O)CCOCCOCC[N+](C)(C)C)C(=O)N[C@H](C)C(=O)N[C@@H](Cc2cccc(c2)CNC(=O)CO4)C(=O)N3)cc1 | -0.59 |

Look up and report measured log10(Ki) (PCSK9 (Homo sapiens)) for the following compound: COc1ccc(C[C@@H]2NC(=O)[C@H]([C@@H](C)O)NC(=O)[C@@H]3[C@@H]4CCN3C(=O)[C@@H]3Cc5cn(c6ccc(F)cc56)Cc5cn(nn5)CC(NC(=O)CCCCCC(=O)N[C@H](CNC(=O)CCOCCOCC[N+](C)(C)C)C(=O)N[C@@H](Cc5cccc(c5)CNC(=O)CO4)C(=O)N3)c3ccc(cc3)CCNC(=O)[C@]3(C)CCCN3C2=O)cc1
-1.65
